experiment: Tmax in fasting human interstitial-space fluid of skeletal muscle at 250 mg, po; type: ADME, organism-based, Muscle tissue
result_type: Tmax (h)
Kindly answer with a numeric value in h, unit omitted.

Entry `CC[C@H]1OC(=O)[C@H](C)[C@@H](O[C@H]2C[C@@](C)(OC)[C@@H](O)[C@H](C)O2)[C@H](C)[C@@H](O[C@@H]2O[C@H](C)C[C@H](N(C)C)[C@H]2O)[C@](C)(OC)C[C@@H](C)C(=O)[C@H](C)[C@@H](O)[C@]1(C)O` : reported Tmax = ?
3

---

test: AUC (0 to 8 hrs) in human interstitial-space fluid of subcutaneous adipose tissue at 500 mg, po, bid for 3 to 5 days; format: ADME, organism-based
result_type: AUC (µg·h/mL)
The figure you give is taken to be in µg·h/mL; do not add the unit.

Fill blank: measured AUC of the compound `CC[C@H]1OC(=O)[C@H](C)[C@@H](O[C@H]2C[C@@](C)(OC)[C@@H](O)[C@H](C)O2)[C@H](C)[C@@H](O[C@@H]2O[C@H](C)C[C@H](N(C)C)[C@H]2O)[C@](C)(OC)C[C@@H](C)C(=O)[C@H](C)[C@@H](O)[C@]1(C)O` is ____.
0.84
